Value source: the supplement of paper PMC8612539

system: Pasteurella multocida; assay: minimum inhibitory concentration (MIC); conditions: isolate (source animal id): 223

# structureSmiles, minimum inhibitory concentration
measured = [
    ("COc1cc(NS(=O)(=O)c2ccc(N)cc2)nc(OC)n1", "> 256 µg/mL"),
    ("CCCN1C[C@H](C)[C@@H](O)[C@](C)(O)[C@@H](CC)OC(=O)[C@H](C)[C@@H](O[C@H]2C[C@@](C)(OC)[C@@H](O)[C@H](C)O2)[C@H](C)[C@@H](O[C@@H]2O[C@H](C)C[C@H](N(C)C)[C@H]2O)[C@](C)(O)C[C@H]1C", "8 µg/mL"),
    ("CC[C@H]1OC(=O)C[C@@H](O)[C@H](C)[C@@H](O[C@@H]2O[C@H](C)[C@@H](O[C@H]3C[C@@](C)(O)[C@@H](O)[C@H](C)O3)[C@H](N(C)C)[C@H]2O)[C@@H](CC=O)C[C@@H](C)C(=O)/C=C/C(C)=C/[C@@H]1CO[C@@H]1O[C@H](C)[C@@H](O)[C@@H](OC)[C@H]1OC", "> 32 µg/mL"),
    ("CC[C@H]1OC(=O)C[C@@H](O)[C@H](C)[C@@H](O[C@@H]2O[C@H](C)[C@@H](O)[C@H](N(C)C)[C@H]2O)[C@@H](CCN2C[C@H](C)C[C@H](C)C2)C[C@@H](C)C(=O)/C=C/C(C)=C/[C@@H]1CO[C@@H]1O[C@H](C)[C@@H](O)[C@@H](OC)[C@H]1OC", "> 16 µg/mL"),
    ("CN(C)[C@@H]1C(O)=C(C(N)=O)C(=O)[C@@]2(O)C(O)=C3C(=O)c4c(O)cccc4[C@@](C)(O)[C@H]3C[C@@H]12", "> 8 µg/mL"),
    ("NC[C@@H]1O[C@H](O[C@H]2[C@@H](O)[C@H](O[C@@H]3[C@@H](O)[C@H](N)C[C@H](N)[C@H]3O[C@H]3O[C@H](CN)[C@@H](O)[C@H](O)[C@H]3N)O[C@@H]2CO)[C@H](N)[C@@H](O)[C@@H]1O", "> 32 µg/mL"),
    ("CC1(C)S[C@@H]2[C@H](NC(=O)Cc3ccccc3)C(=O)N2[C@H]1C(=O)O", "0.25 µg/mL"),
    ("COc1cc(Cc2cnc(N)nc2N)cc(OC)c1OC.Cc1cc(NS(=O)(=O)c2ccc(N)cc2)no1", "≤ 2 µg/mL"),
]
